# Assay: Phase 1 crossover drug-drug interaction study, plasma pharmacokinetics by HPLC-MS/MS, non-compartmental analysis
# Conditions Used: human, in vivo, T max, Test: LDV/SOF + R/F/TAF (N = 42); median (first quartile, third quartile)
Quantity: Tmax (h)

INSERT INTO measurements (compound, uom, assay_result) VALUES
  ('CC(C)OC(=O)[C@H](C)N[P@](=O)(CO[C@H](C)Cn1cnc2c(N)ncnc21)Oc1ccccc1 [TAF, tenofovir alafenamide]', 'h', 1.8);

====

# Assay: clinical
# Conditions Used: human, in vivo, AUCtau, Test: LDV/SOF + R/F/TAF (N = 42); healthy subjects, fed, multiple dose; plasma; mean (%CV)
AUC for assorted compounds
Quantity: AUC (ng·h/mL)

INSERT INTO results (compound, assay_result) VALUES
  ('CC(C)OC(=O)[C@H](C)N[P@](=O)(OC[C@H]1O[C@@H](n2ccc(=O)[nH]c2=O)[C@](C)(F)[C@@H]1O)Oc1ccccc1', 3070),
  ('COC(=O)N[C@H](C(=O)N1CC2(CC2)C[C@H]1c1ncc(-c2ccc3c(c2)C(F)(F)c2cc(-c4ccc5nc([C@@H]6[C@H]7CC[C@H](C7)N6C(=O)[C@@H](NC(=O)OC)C(C)C)[nH]c5c4)ccc2-3)[nH]1)C(C)C', 11900);

====

AUC overview
# Assay: Phase 1 crossover drug-drug interaction study, plasma pharmacokinetics by HPLC-MS/MS, non-compartmental analysis
# Conditions Used: human, plasma, oral, AUCtau, Reference: R/F/TAF (N = 42); healthy subjects, fed, multiple dose; plasma; mean (%CV)
Quantity: AUC

INSERT INTO measurements (compound, assay_result) VALUES
  ('Cc1cc(/C=C/C#N)cc(C)c1Nc1ccnc(Nc2ccc(C#N)cc2)n1', '3040 ng·h/mL'),
  ('C[C@H](Cn1cnc2c(N)ncnc21)OCP(=O)(O)O', '268 ng·h/mL'),
  ('Nc1nc(=O)n([C@@H]2CS[C@H](CO)O2)cc1F', '10800 ng·h/mL');

====

# Assay: Phase 1 crossover drug-drug interaction study, plasma pharmacokinetics by HPLC-MS/MS, non-compartmental analysis
# Conditions Used: Test: LDV/SOF + R/F/TAF (N = 42); plasma; mean (%CV)
Quantity: C tau

INSERT INTO assay_data (compound, assay_result) VALUES
  ('C[C@H](Cn1cnc2c(N)ncnc21)OCP(=O)(O)O', '17 (22) ng/mL'),
  ('Cc1cc(/C=C/C#N)cc(C)c1Nc1ccnc(Nc2ccc(C#N)cc2)n1', '100 (26) ng/mL'),
  ('COC(=O)N[C@H](C(=O)N1CC2(CC2)C[C@H]1c1ncc(-c2ccc3c(c2)C(F)(F)c2cc(-c4ccc5nc([C@@H]6[C@H]7CC[C@H](C7)N6C(=O)[C@@H](NC(=O)OC)C(C)C)[nH]c5c4)ccc2-3)[nH]1)C(C)C', '434 (47) ng/mL'),
  ('Nc1nc(=O)n([C@@H]2CS[C@H](CO)O2)cc1F', '89 (25) ng/mL');

====

# Assay: clinical
# Conditions Used: human, in vivo
Quantity: Tmax (h)

INSERT INTO results (molecule, quantity, assay_result) VALUES
  ('Cc1cc(/C=C/C#N)cc(C)c1Nc1ccnc(Nc2ccc(C#N)cc2)n1 [RPV, rilpivirine]', 'Tmax', 5);

====

# Assay: Phase 1 crossover drug-drug interaction study, plasma pharmacokinetics by HPLC-MS/MS, non-compartmental analysis
# Conditions Used: human, in vivo, AUClast, Reference: R/F/TAF (N = 42); plasma; mean (%CV)
Quantity: AUC(0-t) (ng·h/mL)

INSERT INTO measurements (molecule, uom, assay_result) VALUES
  ('CC(C)OC(=O)[C@H](C)N[P@](=O)(CO[C@H](C)Cn1cnc2c(N)ncnc21)Oc1ccccc1 [TAF, tenofovir alafenamide]', 'ng·h/mL', 277);

====

# Assay: Phase 1 crossover drug-drug interaction study, plasma pharmacokinetics by HPLC-MS/MS, non-compartmental analysis
# Conditions Used: test LDV/SOF + R/F/TAF vs reference R/F/TAF
Measured GLSM ratio (test/reference) of C max values are reported for all entries that follow.
Quantity: GLSM ratio (test/reference) of C max (%)

INSERT INTO measurements (compound, assay_result) VALUES
  ('C[C@H](Cn1cnc2c(N)ncnc21)OCP(=O)(O)O [TFV, tenofovir]', 162),
  ('CC(C)OC(=O)[C@H](C)N[P@](=O)(CO[C@H](C)Cn1cnc2c(N)ncnc21)Oc1ccccc1 [TAF, tenofovir alafenamide]', 103),
  ('Nc1nc(=O)n([C@@H]2CS[C@H](CO)O2)cc1F [FTC, emtricitabine]', 97),
  ('Cc1cc(/C=C/C#N)cc(C)c1Nc1ccnc(Nc2ccc(C#N)cc2)n1 [RPV, rilpivirine]', 97);

====

# Assay: Phase 1 crossover drug-drug interaction study, plasma pharmacokinetics by HPLC-MS/MS, non-compartmental analysis;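 note: blood sampled at steady state on final dosing day, predose through 24 h after dose, study drug given shortly after standardized breakfast, with isotopically labeled internal standards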
# Conditions Used: human, plasma, oral, T max, Test: LDV/SOF + R/F/TAF (N = 42); median (first quartile, third quartile)
Quantity: Tmax (h)

INSERT INTO measurements (compound, quantity, assay_result) VALUES
  ('Nc1nc(=O)n([C@@H]2CS[C@H](CO)O2)cc1F', 'Tmax', 3);
